- Target entity: His-tagged human IL-18BP (human) (UniProt O95998)
- Sequence (O95998 31-194): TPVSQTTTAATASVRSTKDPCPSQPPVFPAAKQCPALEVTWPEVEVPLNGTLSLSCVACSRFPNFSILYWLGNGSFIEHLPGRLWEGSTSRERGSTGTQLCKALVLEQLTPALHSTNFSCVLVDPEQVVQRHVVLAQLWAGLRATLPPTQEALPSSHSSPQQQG
- Protocol description: AlphaLISA of free IL-18BP
pKd: −log10 of the molar value.
Returns one of yes (1) or no (0); yes (1) when pKd is >= 6.

| Binder | Assigned category |
| --- | --- |
| C318 + Matriptase (ligand) MAAEPVEDNSINFVAMKFIDNTLYFIAEDDENLESDSGRVANYFGKLKSKLSIIRNLNDQVLFIDQGNRPLFEDMTDSDARDNAPRTIFIISMYADSQPRGMAVAISVKCEKISTLSAENKIISFKEMNPPDNIKDTKSDIIFFQRSVPGHDNKMQFESSSYEGYFLAAEKERDLFKLILKKEDELGDRSIMFTVQNED | yes (1) |
| C326 + MMP9 (ligand) LAGSGYFGKLKSKLSIIRNLNDQVLFIDQGNRPLFEDMTDSDARDNAPRTIFIISMYADSQPRGMAVAISVKCEKISTLSAENKIISFKEMNPPDNIKDTKSDIIFFQRSVPGHDNKMQFESSSYEGYFLAAEKERDLFKLILKKEDELGDRSIMFTVQNED | yes (1) |
| C325 (ligand) MAAEPVEDNSINFVAMKFIDNTLYFIAEDDENLESDRGRRPLGLAGGSGYFGKLKSKLSIIRNLNDQVLFIDQGNRPLFEDMTDSDARDNAPRTIFIISMYADSQPRGMAVAISVKCEKISTLSAENKIISFKEMNPPDNIKDTKSDIIFFQRSVPGHDNKMQFESSSYEGYFLAAEKERDLFKLILKKEDELGDRSIMFTVQNED | no (0) |
| C325 + MMP9 (ligand) LAGGSGYFGKLKSKLSIIRNLNDQVLFIDQGNRPLFEDMTDSDARDNAPRTIFIISMYADSQPRGMAVAISVKCEKISTLSAENKIISFKEMNPPDNIKDTKSDIIFFQRSVPGHDNKMQFESSSYEGYFLAAEKERDLFKLILKKEDELGDRSIMFTVQNED | yes (1) |
| C323 (ligand) MAAEPVEDNSINFVAMKFIDNTLYFIAEDDENLESDRGRRVANLVGGSGYFGKLKSKLSIIRNLNDQVLFIDQGNRPLFEDMTDSDARDNAPRTIFIISMYADSQPRGMAVAISVKCEKISTLSAENKIISFKEMNPPDNIKDTKSDIIFFQRSVPGHDNKMQFESSSYEGYFLAAEKERDLFKLILKKEDELGDRSIMFTVQNED | no (0) |
| C324 + MMP9 (ligand) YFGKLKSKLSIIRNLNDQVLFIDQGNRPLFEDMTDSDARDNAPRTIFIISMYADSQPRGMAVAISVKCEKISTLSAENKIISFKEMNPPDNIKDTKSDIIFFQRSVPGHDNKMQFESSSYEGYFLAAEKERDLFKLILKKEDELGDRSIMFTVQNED | yes (1) |

Here is the next item to consider.
Exercise: Decide: pKd of C326 (ligand) MAAEPVEDNSINFVAMKFIDNTLYFIAEDDENLESDRGRRVANPLGLAGSGYFGKLKSKLSIIRNLNDQVLFIDQGNRPLFEDMTDSDARDNAPRTIFIISMYADSQPRGMAVAISVKCEKISTLSAENKIISFKEMNPPDNIKDTKSDIIFFQRSVPGHDNKMQFESSSYEGYFLAAEKERDLFKLILKKEDELGDRSIMFTVQNED >= 6?
Key: no (0)
